Test system: h-Tel quadruplex DNA sequence 5'-d[AGGG(TTAGGG)3]-3'
ASSAY_NOTES: SPR binding to quadruplex DNA
Design: species or system human
READOUT_KIND: Quadruplex DNA affinity K (M⁻¹)

See these solved cases before continuing.
CN1c2ccccc2-c2c3c1cccc3c1ccc(NC(=O)CC[S+](C)[O-])cc1[n+]2C (stereo not shown) [Compound 5] | 2.3e+07
CN1c2ccccc2-c2c3c1cccc3c1ccc(CN)cc1[n+]2C [Compound 4] | 7.4e+06

1: Cc1cc2c3c([n+](C)c4ccc(F)cc4c3c1)-c1cc(F)ccc1N2C [Compound 1, reference compound]
2: COC(=O)c1ccc2c(c1)c1cccc3c1c([n+]2C)-c1ccccc1N3C [Compound 2]
Please state the entry with greater Quadruplex DNA affinity K among 1 and 2 . Provide the label of your selected option as the answer. 1

This collection of values is drawn from paper PMC4193996.
